Taken from BigSolDB 2.1.

settings: in isobutanol, 298.15 K
readout kind: solubility (mole fraction)
Answer using only a numeral; do not append any unit.

Short answer for NCCCCCCN : solubility (mole fraction) was 0.427

* * *

details: in n-butanol, 278.15 K
readout kind: solubility (mole fraction)
Reply with just the number.

solubility (mole fraction) recorded for this molecule, NCCCCCCN , is 0.35

* * *

conditions: in toluene, 288.15 K
readout kind: solubility (mole fraction)

Looking up NCCCCCCN , I found its solubility (mole fraction) recorded as 0.209

* * *

settings: in isobutanol, 283.15 K
readout kind: solubility (mole fraction)
I'd appreciate a reply containing only the number, no unit.

For NCCCCCCN the molecule record lists solubility (mole fraction) as 0.236
